tested on: barnyardgrass; test: Test C flooded paddy test; type: in vivo, Echinochloa crus-galli; conditions: 500 g ai/ha, visual rating after 12 to 14 days, scale 0 to 100 (0 no effect, 100 complete control)
measured_endpoint: Plant response rating, Barnyardgrass
Simply state the number, no unit and no words.

Log: barnyardgrass, molecule CCNC(=O)c1ccc(F)c(NC(=O)c2cc(C3(C)CC3)nn2CC)c1 , Plant response rating, Barnyardgrass = 95

Log: barnyardgrass, molecule CCn1nc(C(C)(C)C)cc1C(=O)Nc1cccc(C(=O)NCC2CC2)c1 , Plant response rating, Barnyardgrass = 55

Log: barnyardgrass, molecule C=CCNC(=O)c1cccc(NC(=O)c2nn(C(C)C)nc2CC)c1 , Plant response rating, Barnyardgrass = 75

Log: barnyardgrass, molecule CCn1nc(C(C)(C)C)cc1C(=O)Nc1ccc(OC)c(C(=O)OC(C)C)c1 , Plant response rating, Barnyardgrass = 50

---

Give Crabgrass, Large plant response rating for every item shown.
tested on: large crabgrass; assay: Test A pre-/postemergence herbicide test; assay type: in vivo, Digitaria sanguinalis; conditions: Preemergence, 2000 g ai/ha; 0 to 100 scale, 0 no effect, 100 complete control

Item: CCn1nc(C(C)(C)C)cc1C(=O)Nc1cccc(C(=O)NC2CC2)c1 [Compound 44] | Crabgrass, Large plant response rating: 90

Item: CCn1nc(C(C)(C)C)cc1C(=O)Nc1cccc(C(=O)NCC(C)C)c1 [Compound 61] | Crabgrass, Large plant response rating: 90

Item: Cn1nc(C(C)(C)C)cc1C(=O)Nc1cccc2c1CNC2=O [Compound 53] | Crabgrass, Large plant response rating: 40

Item: CCN1CCc2c(NC(=O)c3cc(C(C)(C)C)nn3CC)cccc2C1=O [Compound 63] | Crabgrass, Large plant response rating: 100

Item: CCNC(=O)c1cccc(NC(=O)c2cc(C(C)(C)C)nn2CCF)c1 [Compound 35] | Crabgrass, Large plant response rating: 100

Item: CCOC(=O)c1cc(NC(=O)c2cc(C(C)(C)C)nn2CC)ccc1F [Compound 89] | Crabgrass, Large plant response rating: 0

Item: CCn1nc(C(C)(C)C)cc1C(=O)Nc1cccc(C(=O)OCCF)c1C [Compound 91] | Crabgrass, Large plant response rating: 35

---

System: barnyardgrass
Assay: Test B flooded paddy test
Type: in vivo, Echinochloa crus-galli
Conditions: 1000 g ai/ha, visual rating, scale 0 to 100 (0 no effect, 100 complete control), 13 to 15 days
Method: At the same time, plants selected from these crop and weed species and also blackgrass (Alopecurus myosuroides Huds.), wheat (Triticum aestivum L.) and wild oat (Avena fatua L.) were treated with postemergence applications of test chemicals formulated in the same manner. […] Treated plants and controls were maintained in a greenhouse for 13 to 15 days, after which time all species were compared to controls and visually evaluated. […]
Each record is given YES if its reported Barnyardgrass plant response rating is strictly below 60. Records at or above 60 are given NO.

// query Say whether its Barnyardgrass plant response rating is strictly beneath 60. Entry: CCN1CCc2c(NC(=O)c3cc(C(C)(C)C)nn3CC)cccc2C1=O
// result NO

// query Say whether its Barnyardgrass plant response rating is strictly beneath 60. Entry: CCn1nc(C(C)(C)C)cc1C(=O)Nc1cccc(C(=O)NCC2CC2)c1
// result NO

// query Say whether its Barnyardgrass plant response rating is strictly beneath 60. Entry: CCOC(=O)c1ccnc(NC(=O)c2cc(C(C)(C)C)nn2CC)c1
// result YES

// query Say whether its Barnyardgrass plant response rating is strictly beneath 60. Entry: CCn1nc(C(C)(C)C)cc1C(=O)Nc1cccc2c1CCN(C1CCCC1)C2=O
// result YES

// query Say whether its Barnyardgrass plant response rating is strictly beneath 60. Entry: CCn1nc(C(C)(C)C)cc1C(=O)Nc1cccc(C(=O)NC2CC2)c1
// result NO

// query Say whether its Barnyardgrass plant response rating is strictly beneath 60. Entry: CCn1nc(C(C)(C)C)cc1C(=O)Nc1cccc(C(=O)NCC(C)C)c1
// result YES

---

Give Pigweed plant response rating (0 to 100 scale) for every item shown.
tested on: pigweed; assay: Test B pre-/postemergence herbicide test; type: in vivo, Amaranthus retroflexus; conditions: 125 g ai/ha; 0 = no effect, 100 = complete control; preemergence

Item: CCOC(=O)c1ccnc(NC(=O)c2cn(C(C)(C)C)nc2CC)c1 | Pigweed plant response rating (0 to 100 scale): 0

Item: CCNC(=O)c1ccc(F)c(NC(=O)c2cc(C3(C)CC3)nn2CC)c1 | Pigweed plant response rating (0 to 100 scale): 100

Item: CCNC(=O)c1cc(NC(=O)c2cc(C(C)(C)C)nn2CC)ccn1 | Pigweed plant response rating (0 to 100 scale): 0

Item: CC(=O)c1cccc(NC(=O)c2sc(C(C)(C)C)nc2C)c1 | Pigweed plant response rating (0 to 100 scale): 0

Item: CCN(CC)C(=O)c1ccc(F)c(NC(=O)C2CC(C(C)(C)C)=NN2CC)c1 (racemic) | Pigweed plant response rating (0 to 100 scale): 80

Item: CC(=NO)c1cccc(NC(=O)c2nn(C(C)(C)C)cc2C(F)(F)F)c1 | Pigweed plant response rating (0 to 100 scale): 0

Item: CCc1nc(C(C)(C)C)sc1C(=O)Nc1cccc(C(=O)NC(C)(C)C)n1 | Pigweed plant response rating (0 to 100 scale): 0

Item: CCn1nc(C(C)(C)C)cc1C(=O)Nc1cncc(C(=O)N2CC=CC2)n1 | Pigweed plant response rating (0 to 100 scale): 0

Item: CCNC(=O)c1cncc(NC(=O)c2cc(C(C)(C)C)nn2CC)c1 | Pigweed plant response rating (0 to 100 scale): 0

Item: CCn1nc(C(C)(C)C)cc1C(=O)Nc1ccnc(C(=O)N2CC=CC2)c1 | Pigweed plant response rating (0 to 100 scale): 100

Item: CCOC(=O)c1cccc(NC(=O)c2sc(C(C)(C)C)nc2CC)c1 | Pigweed plant response rating (0 to 100 scale): 0

Item: C=CCN(CC=C)C(=O)c1cncc(NC(=O)c2cc(C(C)(C)C)nn2CC)c1 | Pigweed plant response rating (0 to 100 scale): 50

---

Give Velvetleaf plant response rating for every item shown.
test system: velvetleaf; assay: Test B pre-/postemergence herbicide test; type: in vivo, Abutilon theophrasti; settings: postemergence, 125 g ai/ha; visual rating, scale 0 (no effect) to 100 (complete control)

Item: CCn1nc(C(C)(C)C)cc1C(=O)Nc1ccc(OC)c(C(=O)OC(C)C)c1 | Velvetleaf plant response rating: 20

Item: CC(=O)c1cccc(NC(=O)c2cc(C(C)(C)C)nn2CC(F)(F)F)c1 | Velvetleaf plant response rating: 0

Item: CCNC(=O)c1cccc(NC(=O)c2nn(C(C)(C)C)cc2C(F)(F)F)c1 | Velvetleaf plant response rating: 10

Item: CCCn1nc(C(C)(C)C)cc1C(=O)Nc1cccc(C(C)=NO)c1 | Velvetleaf plant response rating: 20

Item: C#CCNC(=O)c1cc(NC(=O)c2cc(C(C)(C)C)nn2CC)ccn1 | Velvetleaf plant response rating: 0

Item: CCN(C)C(=O)c1ccc(F)c(NC(=O)c2cc(C(C)(C)C)nn2CC)n1 | Velvetleaf plant response rating: 10

Item: CCN(CC)C(=O)c1cccc(NC(=O)c2nn(C(C)(C)C)cc2Cl)c1 | Velvetleaf plant response rating: 0

Item: CCNC(=O)c1cc(NC(=O)c2cc(C(C)(C)C)nn2CC)ccn1 | Velvetleaf plant response rating: 0

Item: CCc1nc(C(C)(C)C)sc1C(=O)Nc1cc(C(=O)N(C)C)ccc1F | Velvetleaf plant response rating: 30

---

Give Plant response rating, Lambsquarters for every item shown.
system: lambsquarters; test: Test B pre-/postemergence herbicide test; type: in vivo, Chenopodium album; settings: preemergence, 125 g ai/ha; 0 to 100 scale, 0 is no effect, 100 is complete control
Simply state the number, no unit and no words.

Item: CCNC(=O)c1cccc(NC(=O)c2cc(C(C)(C)C)nn2CC)n1 | Plant response rating, Lambsquarters: 100

Item: CC(=O)c1cccc(NC(=O)c2cc(C(C)(C)C)nn2CC(F)(F)F)c1 | Plant response rating, Lambsquarters: 0

Item: CCn1nc(C(C)(C)C)cc1C(=O)Nc1cccc2c1CCN(C1CCCC1)C2=O | Plant response rating, Lambsquarters: 0

---

test system: velvetleaf; experiment: Test C pre-/postemergence herbicide test; type: in vivo, Abutilon theophrasti; details: 500 g ai/ha; scale 0 to 100 (0 no effect, 100 complete control); visual, 12 to 14 days; preemergence
Give Plant response rating, Velvetleaf for every item shown.

Item: CCc1nn(C(C)C)nc1C(=O)Nc1cccc(C(=O)N2CCCCC2)c1 | Plant response rating, Velvetleaf: 100

Item: CCN(CC)C(=O)c1cccc(NC(=O)c2cc(C(C)(C)C)nn2C)n1 | Plant response rating, Velvetleaf: 85

Item: CCc1nc(C(C)(C)C)sc1C(=O)Nc1cccc(C(=O)NCC2CC2)c1 | Plant response rating, Velvetleaf: 100

Item: CCn1nc(C2(C)CC2)cc1C(=O)Nc1cc(C(=O)N2CC=CC2)ccc1F | Plant response rating, Velvetleaf: 100
